Value source: ChEMBL document CHEMBL5346882

- Protocol Notes: in vitro
- Setup Conditions: human, HepG2 cells
- Description: Hepatotoxicity in human HepG2 cells assessed as reduction in cell viability incubated for 72 hrs by MTS assay
Recorded Metric: CC50 at 72 h
Note to self: number, then unit, no commentary.

For orientation, consider the following solved cases.
>>> measured_result("O=C(CC(c1ccccc1)c1ccccc1)NC[C@H](O)CNCC1CCCCC1")
"2.85 µM"
>>> measured_result("O=C(NC[C@@H](O)CNCC1CCCCC1)C(c1ccccc1)c1ccccc1")
"25.8 µM"
>>> measured_result("O=C(CC(c1ccccc1)c1ccccc1)NC[C@@H](O)CNCC1CCCCC1")
"3.21 µM"

Would you kindly look at the next entry?
Q) Could you tell me which CC50 at 72 h is on file for O=C(NC[C@H](O)CNCC1CCCCC1)C(c1ccccc1)c1ccccc1 ?
A) 18.7 µM

* * *

Data export: pIC50 values recorded with Cholinesterase (Equus caballus, UniProt P81908).
Sequence (P81908 whole entry): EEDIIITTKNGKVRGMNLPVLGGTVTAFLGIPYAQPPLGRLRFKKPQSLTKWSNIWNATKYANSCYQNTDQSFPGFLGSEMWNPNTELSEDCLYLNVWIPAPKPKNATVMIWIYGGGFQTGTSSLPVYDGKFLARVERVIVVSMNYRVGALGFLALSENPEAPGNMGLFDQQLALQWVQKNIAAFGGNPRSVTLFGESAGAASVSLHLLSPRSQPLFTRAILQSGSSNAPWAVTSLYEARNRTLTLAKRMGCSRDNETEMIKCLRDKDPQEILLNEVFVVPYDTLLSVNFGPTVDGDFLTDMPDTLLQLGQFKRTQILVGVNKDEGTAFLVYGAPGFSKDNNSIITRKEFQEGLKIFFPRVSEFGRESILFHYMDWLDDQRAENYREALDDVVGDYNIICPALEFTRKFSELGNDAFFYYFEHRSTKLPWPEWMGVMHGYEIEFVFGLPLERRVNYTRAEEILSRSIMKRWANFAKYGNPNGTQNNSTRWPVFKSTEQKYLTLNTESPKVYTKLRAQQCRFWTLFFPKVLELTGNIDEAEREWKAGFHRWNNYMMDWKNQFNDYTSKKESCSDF
The value called pIC50 is obtained by taking minus log10 of the concentration in mol/L.

Please review the entries below; each comes with its answer.
>>> measured_result("C[C@H](NCC(O)CNC(=O)CC(c1ccccc1)c1ccccc1)c1ccccc1 (mixture of isomers)")
5.32
>>> measured_result("CC(C)(C)c1cccc(CNCC(O)CNC(=O)C(c2ccccc2)c2ccccc2)c1 (racemic)")
6.59
>>> measured_result("O=C(CC(c1ccccc1)c1ccccc1)NCC(O)CNCc1ccccc1 (racemic)")
6.21
>>> measured_result("O=C(CC(c1ccccc1)c1ccccc1)NCC(O)CNCC1CC1 (racemic)")
5.45

Next:
Q) Lab request: please report pIC50 under test system Cholinesterase (Equus caballus, UniProt P81908) for C[C@H](NCC(O)CNC(=O)C(c1ccccc1)c1ccccc1)c1ccccc1 (mixture of isomers)
A) 5.34

* * *

- Protocol Notes: Metabolic stability in human liver microsomes assessed as parent compound remaining incubated for 120 mins in presence of NADPH regeneration system by UPLC/MS analysis
- Assay type: ADME, Microsome
- Setup Conditions: read-out: Stability
Recorded Metric: remaining at 2 h

Please review the entries below; each comes with its answer.
>>> measured_result("O=C(NCC(O)CNCC1CCCCC1)C(c1ccccc1)c1ccccc1 (stereo not drawn)")
"> 80%"
>>> measured_result("O=C(CC(c1ccccc1)c1ccccc1)NCC(O)CNCC1CCCCC1 (stereo not drawn)")
"> 80%"

// next item, remaining at 2 h requested
Q) Could you tell me which remaining at 2 h is on file for O=C(CC(c1ccccc1)c1ccccc1)NCC(O)CNCc1ccccc1 (racemic) ?
A) 66%

* * *

- Protocol Notes: Half life in CD-1 mouse plasma at 10 mg/kg, ip administered as single dose and measured after 15 to 240 mins by LC-MS/MS analysis
- Type: ADME, organism-based
- Setup Conditions: time 15-240 min
Recorded Metric: half-life (h)
Record the value in h, omitting the unit from your answer.

Q) # half-life lookup, item O=C(CC(c1ccccc1)c1ccccc1)NCC(O)CNCC1CCCCC1 (stereo unspecified)
A) 1.6

* * *

- Protocol Notes: MRT in CD-1 mouse plasma at 30 mg/kg, ip administered as single dose and measured after 15 to 240 mins by LC-MS/MS analysis
- Assay type: ADME, organism-based
- Setup Conditions: time 15-240 min
Recorded Metric: MRT

Q) Quick one: MRT for O=C(CC(c1ccccc1)c1ccccc1)NCC(O)CNCC1CCCCC1 (stereo unspecified) ?
A) 1.03 h

* * *

- Protocol Notes: Tmax in CD-1 mouse brain at 10 mg/kg, ip administered as single dose and measured after 15 to 240 mins by LC-MS/MS analysis
- Format: ADME, organism-based
- Setup Conditions: time 15-240 min
Recorded Metric: Tmax (min)
The answer is to be given in min; state only the numeric part.

Q) Can you share its Tmax? I mean this molecule: O=C(CC(c1ccccc1)c1ccccc1)NCC(O)CNCC1CCCCC1 (stereo unspecified)
A) 15

* * *

Below, each of the compounds is paired with its reported pIC50 value.
- Test System: UniProtKB P31648
- Protocol Notes: Inhibition of mouse GAT1 expressed in HEK293 cells assessed as reduction in [3H]-GABA uptake incubated for 10 mins
pIC50: −log10 of the molar value.

Worked examples follow.
>>> measured_result("O=C(CC(c1ccccc1)c1ccccc1)NCC(O)CNCC1CCCCC1 (stereo not given)")
"< 5.00"
>>> measured_result("O=C(CC(c1ccccc1)c1ccccc1)NCC(O)CNCC1CC1 (racemic)")
"< 5.00"
>>> measured_result("O=C(NCC(O)CNCc1ccccc1)C(c1ccccc1)c1ccccc1 (racemic)")
"< 5.00"

Q) Recorded pIC50 for CC(C)(C)c1cccc(CNCC(O)CNC(=O)C(c2ccccc2)c2ccccc2)c1 (racemic) , please?
A) < 5.00

Q) Need pIC50 of CC(C)(C)c1cccc(CNCC(O)CNC(=O)CC(c2ccccc2)c2ccccc2)c1 (racemic) , thanks.
A) < 5.00

* * *

Reported values: pIC50 for Cholinesterase (Equus caballus), one per item.
By convention, pIC50 is the negative base-10 log of a molar concentration.

Before answering, review these 3 worked examples.
>>> measured_result("O=C(CC(c1ccccc1)c1ccccc1)NCC(O)CNCc1cccc(C(F)(F)F)c1 (racemic)")
5.76
>>> measured_result("CC(C)(C)c1cccc(CNCC(O)CNC(=O)CC(c2ccccc2)c2ccccc2)c1 (racemic)")
6.49
>>> measured_result("O=C(NCC(O)CNCc1cccc(C(F)(F)F)c1)C(c1ccccc1)c1ccccc1 (racemic)")
6.02

Q) I'd like to know its pIC50. The compound in question is CC(C)c1cccc(CNCC(O)CNC(=O)CC(c2ccccc2)c2ccccc2)c1 (racemic)
A) 6.20

Q) For CC(C)(C)c1ccc(CNCC(O)CNC(=O)CC(c2ccccc2)c2ccccc2)cc1 (racemic) , what is its reported pIC50?
A) 5.71

* * *

- Test System: Beta-secretase 1 (Homo sapiens, UniProt P56817)
- Sequence (P56817 whole entry): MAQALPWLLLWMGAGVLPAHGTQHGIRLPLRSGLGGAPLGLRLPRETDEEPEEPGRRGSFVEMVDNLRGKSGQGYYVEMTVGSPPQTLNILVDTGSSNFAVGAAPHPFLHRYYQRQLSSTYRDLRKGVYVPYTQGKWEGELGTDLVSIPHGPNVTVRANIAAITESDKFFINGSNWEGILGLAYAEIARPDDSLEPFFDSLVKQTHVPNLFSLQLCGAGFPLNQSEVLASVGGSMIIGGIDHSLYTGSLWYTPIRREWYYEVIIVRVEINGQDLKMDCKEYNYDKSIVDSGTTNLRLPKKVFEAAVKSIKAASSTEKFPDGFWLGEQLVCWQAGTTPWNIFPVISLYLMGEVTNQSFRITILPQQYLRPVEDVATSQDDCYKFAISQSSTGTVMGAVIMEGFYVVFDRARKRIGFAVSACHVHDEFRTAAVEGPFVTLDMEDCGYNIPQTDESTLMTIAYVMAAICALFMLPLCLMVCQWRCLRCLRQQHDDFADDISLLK
- Protocol Notes: Inhibition of human recombinant BACE-1 expressed in baculovirus using swedish mutant of APP based Rh-EVNLDAEFK-quencher as substrate incubated for 60 mins by FRET assay
Recorded Metric: pIC50
Here pIC50 is given on a logarithmic scale as minus log10 of the concentration in mol/L.

Q) Reported pIC50 for CC(C)(C)c1cccc(CNCC(O)CNCCC(c2ccccc2)c2ccccc2)c1 (stereo unspecified) : what is it?
A) 4.39

* * *

- Protocol Notes: MRT in CD-1 mouse plasma at 10 mg/kg, ip administered as single dose and measured after 15 to 240 mins by LC-MS/MS analysis
- Format: ADME, organism-based
- Setup Conditions: time 15-240 min
Recorded Metric: MRT (h)
Entry rule: numbers only, all in h.

Q) Returns the measured MRT for the input compound. Input: O=C(CC(c1ccccc1)c1ccccc1)NCC(O)CNCC1CCCCC1 (stereo unspecified)
A) 1.24

* * *

- Protocol Notes: Tmax in CD-1 mouse plasma at 10 mg/kg, ip administered as single dose and measured after 15 to 240 mins by LC-MS/MS analysis
- Assay type: ADME, organism-based
- Setup Conditions: time 15-240 min
Recorded Metric: Tmax
# output: numeric value plus its unit

Q) Tmax for O=C(CC(c1ccccc1)c1ccccc1)NCC(O)CNCC1CCCCC1 (stereo unspecified) ?
A) 15 min

* * *

- Protocol Notes: Ratio of brain to plasma partition coefficient in CD-1 mouse at 10 mg/kg, ip administered as single dose and measured after 15 to 240 mins by LC-MS/MS analysis
- Type: ADME, organism-based
- Setup Conditions: time 15-240 min, read-out: BPR
Recorded Metric: Kp
No unit in the answer, please; the number alone is enough.

Q) Bench note: what Kp did O=C(CC(c1ccccc1)c1ccccc1)NCC(O)CNCC1CCCCC1 (stereo unspecified) show?
A) 0.34

* * *

- Protocol Notes: Cmax in CD-1 mouse plasma at 30 mg/kg, ip administered as single dose and measured after 15 to 240 mins by LC-MS/MS analysis
- Assay type: ADME, organism-based
- Set-up: time upper 240 min, time lower 15 min, dose 30 mg/kg, route ip
Recorded Metric: Cmax (ng/mL)
Express it in ng/mL; write the number only.

Q) What does the record list as Cmax for O=C(CC(c1ccccc1)c1ccccc1)NCC(O)CNCC1CCCCC1 (stereo unspecified) ?
A) 312

* * *

- Protocol Notes: Cmax in CD-1 mouse plasma at 10 mg/kg, ip administered as single dose and measured after 15 to 240 mins by LC-MS/MS analysis
- Assay type: ADME, organism-based
- Parameters: dose 10 mg/kg, time 15-240 min, route ip
Recorded Metric: Cmax (ng/mL)
Please give a number only; it is taken to be in ng/mL.

Q) I am curious: what Cmax value has been reported for O=C(CC(c1ccccc1)c1ccccc1)NCC(O)CNCC1CCCCC1 (stereo unspecified) ?
A) 192

* * *

- Test System: Cholinesterase (Homo sapiens, UniProt P06276)
- Sequence (P06276 whole entry): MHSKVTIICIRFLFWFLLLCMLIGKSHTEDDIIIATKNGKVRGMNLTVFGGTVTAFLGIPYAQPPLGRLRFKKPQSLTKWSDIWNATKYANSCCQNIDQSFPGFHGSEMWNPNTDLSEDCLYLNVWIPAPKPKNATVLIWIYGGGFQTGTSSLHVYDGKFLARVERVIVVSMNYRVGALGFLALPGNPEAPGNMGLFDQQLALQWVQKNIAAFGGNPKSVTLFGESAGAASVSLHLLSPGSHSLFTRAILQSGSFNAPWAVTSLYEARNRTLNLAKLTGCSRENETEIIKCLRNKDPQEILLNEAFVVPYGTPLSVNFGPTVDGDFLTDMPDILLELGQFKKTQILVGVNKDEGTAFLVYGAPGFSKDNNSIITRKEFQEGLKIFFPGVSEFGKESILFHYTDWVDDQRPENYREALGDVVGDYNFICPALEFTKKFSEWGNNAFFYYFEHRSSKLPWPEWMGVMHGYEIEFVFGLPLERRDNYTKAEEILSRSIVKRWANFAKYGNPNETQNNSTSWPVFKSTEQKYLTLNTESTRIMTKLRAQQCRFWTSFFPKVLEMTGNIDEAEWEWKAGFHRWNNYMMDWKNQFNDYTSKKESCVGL
- Protocol Notes: Inhibition of human recombinant BuChE using butyrylthiocholine iodide as substrate at 1 uM preincubated for 5 mins followed by substrate addition and measured after 5 mins by DTNB-reagent based Ellman's method relative to control
- Setup Conditions: time 10.0 min
Recorded Metric: inhibition

Some solved cases for reference:
>>> measured_result("CC(C)(NCC(O)CNC(=O)C(c1ccccc1)c1ccccc1)c1ccccc1 (racemic)")
"< 20%"
>>> measured_result("O=C(NCC(O)CNCC1CC1)C(c1ccccc1)c1ccccc1 (racemic)")
"< 20%"

Kindly consider the entry below.
Q) Query (molecule): C[C@H](NCC(O)CNC(=O)C(c1ccccc1)c1ccccc1)c1ccccc1 (mixture of isomers) ; field requested: inhibition
A) < 20%
